test system: DAPK1; conditions: concentration: 1 μM, replicates: in singlicate; n = 1;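 further: KINOMEscan kinase panel screen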
Measured %Inh values are reported for all entries that follow.
Numbers only; they are read as %.

                                   molecule  target_entity  unit  recorded_value
0  COc1cccc(NC(=O)NCCNc2ccnc(Nc3ccc(F)cc3)n2)c1 [GSK1379879]          DAPK1     %               0
1  CC(C)c1nc(-c2cccc(NS(=O)(=O)c3c(F)cccc3F)c2)c(-c2ccnc(Nc3ccc(N4CCOCC4)nc3)n2)s1.Cl [GSK1723980]          DAPK1     %               3
2  Cl.O=C(Nc1ccc(Oc2ccc3[nH]c(NC(=O)c4ccco4)nc3c2)cc1)Nc1cc(C(F)(F)F)ccc1F [GW683134]          DAPK1     %               3
3  Cc1ccccc1CC(=O)N1CCc2cc(-c3cn(C)c4ncnc(N)c34)ccc21 [GSK2603346]          DAPK1     %               0
4  c1ccc(Oc2ccc(Nc3ccnc4cc(-c5ccc(CN6CCCCC6)o5)ccc34)cc2)nc1 [GW567143]          DAPK1     %               0

Let's switch to this molecule now.
# return recorded %Inh for entry O=C(O)C(F)(F)F.O=c1[nH]ccc2nc(N[C@@H]3CCNC3)nc(Nc3ccc4c(c3)S(=O)(=O)CC4)c12 [GSK2181306]
99.5
